Test system: Digiatria sanguinalis
Test: Test of herbicidal activities (greenhouse pot method)
Assay type: in vivo
Details: single dose 300 g ai./h, treated before/after germination, 15 days later, greenhouse pot
MEASURE: Herbicidal activity Digiatria sanguinalis (inhibition level)

Look at this compound and give its reported Herbicidal activity Digiatria sanguinalis (inhibition level). `Cc1nn(-c2cc3nc(SCc4ccco4)sc3cc2F)c(=O)n1C(F)F`
B (80 ≦ B < 90%)

Can you check `CCCSc1nc2cc(-n3nc(C)n(C(F)F)c3=O)c(Cl)cc2s1` next?
B (80 ≦ B < 90%)

---

Tested on: Digiatria sanguinalis
Test: Test of herbicidal activities (greenhouse pot method)
Format: in vivo
Settings: single dose 300 g ai./h, treated before/after germination, 15 days later, greenhouse pot
MEASURE: Herbicidal activity Digiatria sanguinalis (inhibition level)

Look at this compound and give its reported Herbicidal activity Digiatria sanguinalis (inhibition level). `Cc1nn(-c2cc3nc(S(=O)(=O)Cc4cccc([N+](=O)[O-])c4)sc3cc2F)c(=O)n1C(F)F`
A (90 ≦ A ≦ 100%)

Can you check `Cc1ccc(CS(=O)(=O)c2nc3cc(-n4nc(C)n(C(F)F)c4=O)c(F)cc3s2)cc1` next?
A (90 ≦ A ≦ 100%)
